- measuredOn: HDAC3 (Homo sapiens)
- Sequence (O15379 whole entry): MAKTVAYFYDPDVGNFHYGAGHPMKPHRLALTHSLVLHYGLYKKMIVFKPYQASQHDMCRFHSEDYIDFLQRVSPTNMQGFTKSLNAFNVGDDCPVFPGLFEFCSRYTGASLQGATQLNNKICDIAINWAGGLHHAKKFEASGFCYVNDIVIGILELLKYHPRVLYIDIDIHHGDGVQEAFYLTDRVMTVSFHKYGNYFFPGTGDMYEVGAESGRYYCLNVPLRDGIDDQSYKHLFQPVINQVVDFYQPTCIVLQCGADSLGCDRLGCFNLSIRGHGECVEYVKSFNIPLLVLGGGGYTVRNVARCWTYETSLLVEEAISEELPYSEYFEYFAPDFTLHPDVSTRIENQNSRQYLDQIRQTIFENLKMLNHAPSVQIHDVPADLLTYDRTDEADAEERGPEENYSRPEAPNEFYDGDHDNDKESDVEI
- Sequence (Q9Y618 395-489 partner limits assumed): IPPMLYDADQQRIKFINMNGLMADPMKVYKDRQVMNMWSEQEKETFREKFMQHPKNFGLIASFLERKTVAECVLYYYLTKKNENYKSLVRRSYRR
readoutName: IC50 (nM)
Numbers only here, please. The scale is nM.

What reported IC50 corresponds to Cn1c(CCCCCCC(=O)NO)nc2cc(N(CCCl)CCCl)ccc21 on HDAC3 (Homo sapiens)? 25

----------
- measuredOn: HDAC1 (Homo sapiens, UniProt Q13547)
- Sequence (Q13547 whole entry): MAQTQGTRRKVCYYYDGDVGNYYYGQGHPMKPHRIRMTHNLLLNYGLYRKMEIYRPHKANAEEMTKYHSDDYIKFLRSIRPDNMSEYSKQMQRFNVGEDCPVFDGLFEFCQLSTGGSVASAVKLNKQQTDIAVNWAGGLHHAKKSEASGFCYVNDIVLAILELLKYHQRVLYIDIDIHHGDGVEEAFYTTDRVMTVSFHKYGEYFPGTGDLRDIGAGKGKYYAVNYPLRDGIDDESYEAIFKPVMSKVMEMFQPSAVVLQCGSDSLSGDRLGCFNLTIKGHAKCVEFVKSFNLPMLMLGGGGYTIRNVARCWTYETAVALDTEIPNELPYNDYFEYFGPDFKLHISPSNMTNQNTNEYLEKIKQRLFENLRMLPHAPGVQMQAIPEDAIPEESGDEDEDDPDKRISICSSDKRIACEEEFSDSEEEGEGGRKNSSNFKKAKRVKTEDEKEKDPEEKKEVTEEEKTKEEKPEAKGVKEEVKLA
- experimentSummary: in vitro HDAC1 inhibition assay
- Format: biochemical
- assaySetup: HDAC1 Assay (plot legend value), Fig 2A upper panel
readoutName: IC50 (nM)
Express it in nM; write the number only.

Query: IC50; subject: Cn1c(CCCCCCC(=O)NO)nc2cc(N(CCCl)CCCl)ccc21 9

----------
- measuredOn: HDAC2 (Homo sapiens)
- Sequence (Q92769 whole entry): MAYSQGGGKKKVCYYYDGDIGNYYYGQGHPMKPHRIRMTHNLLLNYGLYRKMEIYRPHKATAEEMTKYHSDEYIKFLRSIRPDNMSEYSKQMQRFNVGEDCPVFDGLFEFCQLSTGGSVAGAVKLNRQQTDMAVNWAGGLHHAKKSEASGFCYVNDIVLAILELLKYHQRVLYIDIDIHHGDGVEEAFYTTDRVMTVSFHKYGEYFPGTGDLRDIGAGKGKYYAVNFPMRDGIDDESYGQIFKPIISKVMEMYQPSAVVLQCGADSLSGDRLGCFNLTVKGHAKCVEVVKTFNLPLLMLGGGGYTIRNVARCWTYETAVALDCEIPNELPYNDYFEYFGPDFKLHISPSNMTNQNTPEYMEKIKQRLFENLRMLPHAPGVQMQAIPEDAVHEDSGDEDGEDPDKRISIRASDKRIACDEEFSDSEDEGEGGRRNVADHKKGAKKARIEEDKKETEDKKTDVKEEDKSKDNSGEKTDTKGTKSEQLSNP
readoutName: pIC50
Reminder that pIC50 is minus the log10 of a molar concentration.

Write down the reported pIC50 of Cn1c(CCCCCCC(=O)NO)nc2cc(N(CCCl)CCCl)ccc21 , test system: HDAC2 (Homo sapiens). 8.00

----------
- measuredOn: HDAC6 (Homo sapiens)
- Sequence (Q9UBN7 whole entry): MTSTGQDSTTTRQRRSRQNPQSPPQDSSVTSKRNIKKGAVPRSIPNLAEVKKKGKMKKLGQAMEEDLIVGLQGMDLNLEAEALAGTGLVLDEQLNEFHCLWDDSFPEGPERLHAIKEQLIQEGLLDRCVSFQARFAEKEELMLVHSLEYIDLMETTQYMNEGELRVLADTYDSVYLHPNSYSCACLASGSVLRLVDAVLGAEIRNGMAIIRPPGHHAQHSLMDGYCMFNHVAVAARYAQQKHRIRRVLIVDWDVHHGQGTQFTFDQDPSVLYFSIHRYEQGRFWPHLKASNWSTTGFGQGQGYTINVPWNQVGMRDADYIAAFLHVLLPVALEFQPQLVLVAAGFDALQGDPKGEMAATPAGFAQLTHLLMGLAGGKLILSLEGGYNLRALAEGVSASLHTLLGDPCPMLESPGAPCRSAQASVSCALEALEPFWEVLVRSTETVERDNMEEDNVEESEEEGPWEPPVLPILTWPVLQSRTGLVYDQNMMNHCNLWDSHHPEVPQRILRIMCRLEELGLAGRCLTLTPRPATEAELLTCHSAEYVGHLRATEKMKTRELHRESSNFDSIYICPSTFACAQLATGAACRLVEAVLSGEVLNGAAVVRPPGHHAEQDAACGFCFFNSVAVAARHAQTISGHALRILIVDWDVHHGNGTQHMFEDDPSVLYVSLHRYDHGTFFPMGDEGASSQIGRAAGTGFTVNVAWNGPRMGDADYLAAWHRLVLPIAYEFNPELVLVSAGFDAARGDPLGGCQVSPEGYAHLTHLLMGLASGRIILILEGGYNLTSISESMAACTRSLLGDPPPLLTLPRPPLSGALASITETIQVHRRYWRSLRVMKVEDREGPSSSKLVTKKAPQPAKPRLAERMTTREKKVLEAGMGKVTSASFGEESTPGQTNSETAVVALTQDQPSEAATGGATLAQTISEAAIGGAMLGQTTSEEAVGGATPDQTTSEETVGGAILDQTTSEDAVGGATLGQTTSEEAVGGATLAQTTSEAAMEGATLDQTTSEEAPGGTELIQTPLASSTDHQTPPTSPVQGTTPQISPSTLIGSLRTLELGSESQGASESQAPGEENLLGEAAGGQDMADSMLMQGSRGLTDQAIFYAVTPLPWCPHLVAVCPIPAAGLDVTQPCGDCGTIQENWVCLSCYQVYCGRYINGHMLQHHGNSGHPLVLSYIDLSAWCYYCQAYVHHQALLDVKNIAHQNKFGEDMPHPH
- experimentSummary: in vitro HDAC inhibition assay, HDAC6
- Assay type: biochemical
readoutName: pIC50
// pIC50: -log10(molar conc.)

Query (compound): Cn1c(CCCCCCC(=O)NO)nc2cc(N(CCCl)CCCl)ccc21 [CY190602] ; field requested: pIC50 7.14

----------
- experimentSummary: viability of healthy primary B cells
- Type: cell-based
- assaySetup: human, healthy primary CD19+ B cells from blood donors, 20 μM CY
readoutName: viability at 72 h, 20 μM

# viability at 72 h, 20 μM lookup, item Cn1c(CCCCCCC(=O)NO)nc2cc(N(CCCl)CCCl)ccc21 ~40%

----------
- measuredOn: HDAC4 (Homo sapiens, UniProt P56524)
- Sequence (P56524 whole entry): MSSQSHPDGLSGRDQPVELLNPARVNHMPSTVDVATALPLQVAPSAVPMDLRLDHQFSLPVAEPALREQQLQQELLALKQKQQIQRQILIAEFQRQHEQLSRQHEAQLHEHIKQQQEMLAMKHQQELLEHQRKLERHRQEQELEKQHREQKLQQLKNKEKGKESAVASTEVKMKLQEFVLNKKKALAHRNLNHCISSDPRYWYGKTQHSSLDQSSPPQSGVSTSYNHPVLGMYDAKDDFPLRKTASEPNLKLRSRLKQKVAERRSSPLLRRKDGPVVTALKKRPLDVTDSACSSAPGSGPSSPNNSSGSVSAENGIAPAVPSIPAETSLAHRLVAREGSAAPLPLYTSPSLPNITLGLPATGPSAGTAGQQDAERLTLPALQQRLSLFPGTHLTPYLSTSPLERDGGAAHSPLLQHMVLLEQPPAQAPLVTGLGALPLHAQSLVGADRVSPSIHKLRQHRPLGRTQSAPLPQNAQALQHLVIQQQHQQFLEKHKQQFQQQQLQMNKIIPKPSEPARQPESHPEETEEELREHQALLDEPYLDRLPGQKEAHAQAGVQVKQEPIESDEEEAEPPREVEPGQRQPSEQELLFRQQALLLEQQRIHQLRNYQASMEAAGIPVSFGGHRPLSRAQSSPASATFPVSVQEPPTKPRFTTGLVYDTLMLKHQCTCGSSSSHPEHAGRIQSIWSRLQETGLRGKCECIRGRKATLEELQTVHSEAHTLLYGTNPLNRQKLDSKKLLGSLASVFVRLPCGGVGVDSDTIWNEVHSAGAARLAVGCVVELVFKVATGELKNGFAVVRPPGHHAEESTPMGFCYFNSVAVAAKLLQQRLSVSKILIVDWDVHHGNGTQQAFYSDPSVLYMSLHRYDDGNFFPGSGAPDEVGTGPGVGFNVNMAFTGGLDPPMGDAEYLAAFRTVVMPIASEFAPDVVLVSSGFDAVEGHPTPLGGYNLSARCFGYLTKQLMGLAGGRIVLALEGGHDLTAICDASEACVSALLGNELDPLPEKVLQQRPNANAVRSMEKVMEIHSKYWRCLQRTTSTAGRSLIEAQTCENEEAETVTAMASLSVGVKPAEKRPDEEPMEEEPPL
readoutName: IC50 (nM)
Kindly provide the numeric value in nM only, without the unit symbol.

Test system HDAC4 (Homo sapiens, UniProt P56524); read-out IC50; what value for Cn1c(CCCCCCC(=O)NO)nc2cc(N(CCCl)CCCl)ccc21 [CY190602] ? 6.4

----------
- Tested on: HDAC activities in H1650 cells
- experimentSummary: histone acetylation markers by Western blot in H1650 cells
- Assay type: cell-based
- assaySetup: 12 h, 20 μM CY, 20 μM CpdA, 200 μM CpdB, 200 μM Bend
readoutName: inhibition of HDAC activities in cancer cells (histone acetylation markers)

Cn1c(CCCC(=O)O)nc2cc(N(CCCl)CCCl)ccc21: not
